B1: Zinc finger homeobox protein 4, residues 2183 to 2238; numbered along this chain, Q86UP3 (parent)
chain: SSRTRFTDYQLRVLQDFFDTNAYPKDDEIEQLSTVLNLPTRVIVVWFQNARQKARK

Variants of: B1
assay-summary: abundance fitness (aPCA) (normalised: wild type 0, dead -1); higher = more abundant; growth selection in yeast, the domain comes from the species named
condition-context: Homo sapiens
Use abundance fitness to assign classes; range list: low interval: < -0.3; middle interval: ≥ -0.3 and < -0.08; high interval: ≥ -0.08

mutant-code	group
N37M	middle interval
D26Y	middle interval
T7M	middle interval
F6Q	low interval
N37D	high interval
P24F	low interval
V35C	high interval
A22N	high interval
S1C	high interval
P24H	low interval
D8P	high interval
Y23M	high interval
D27A	low interval
T7A	middle interval
F6W	middle interval
L32W	low interval
N21V	middle interval
A22K	middle interval
T34S	high interval
Y9F	high interval
S33M	low interval
P24M	low interval
D19H	middle interval
D16V	middle interval
D26H	high interval
Y23D	high interval
E30Q	high interval
L14F	low interval
A22P	high interval
R3D	high interval
F18H	middle interval
R3L	high interval
Q31R	high interval
T20A	high interval
K25F	low interval
Q31T	middle interval
L32Q	low interval
R3Y	high interval
F17Y	middle interval
Y23I	middle interval
S2W	low interval
S33K	low interval
V35T	high interval
Q10M	middle interval
D26R	high interval
T7Y	low interval
T20F	low interval
E30V	middle interval
E30K	middle interval
S33I	low interval
D26P	middle interval
L32G	low interval
I29S	low interval
D19Y	middle interval
D16W	low interval
S2D	high interval
D8C	middle interval
L11E	high interval
S33R	low interval
F18I	middle interval
E30C	middle interval
T4G	low interval
R5Y	high interval
S2E	high interval
N21W	low interval
S1G	high interval
V13F	high interval
D16P	low interval
L14V	middle interval
E30I	middle interval
L36F	low interval
F17I	middle interval
I29T	middle interval
E30Y	low interval
R5L	high interval
S2H	middle interval
R5Q	middle interval
F17G	middle interval
D19T	high interval
D16E	high interval
D8Y	low interval
D16S	high interval
F6P	low interval
R12G	middle interval
S1P	low interval
R5P	high interval
R12F	low interval
D19F	middle interval
E28T	high interval
